- Experiment Description: qHTS for identification of novel therapeutic agents for treatment of microphthalmiaassociated transcription factor (MiT) renal cell carcinoma (RCC) (AID 1963991);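 note: curves scaled with 100% = DMSO viability and 0% = empty wells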
- Experimental Conditions: TFE3-RCC viability, CellTiter-Glo, 48 h; measured here: UOK145 Z-AUC; stronger effect = lower value
Results filed as inconclusive are left out.
Measured z-score, listed per entry for reference.
No unit in the answer, only the number.

Fill blank: measured z-score of the compound CCC(=O)N1CCN(c2ccc(-n3c(=O)ccc4cnc5ccc(-c6cnc7ccccc7c6)cc5c43)cc2C(F)(F)F)CC1 is ____.
-1.82

More entries:
Fill blank: measured z-score of the compound CC[C@H](C=C[C@@H](C)[C@H]1CC[C@H]2[C@@H]3CC=C4C[C@@H](O)CC[C@]4(C)[C@@H]3CC[C@]12C)C(C)C is ____.
1.02

Fill blank: measured z-score of the compound OC[C@H]1O[C@@H](OCCc2ccc(O)cc2)[C@H](O)[C@@H](O)[C@H]1O is ____.
-0.171

Fill blank: measured z-score of the compound CCN(CCO)CCCOc1ccc2c(Nc3cc(CC(=O)Nc4cccc(F)c4)[nH]n3)ncnc2c1 is ____.
0.045

----------
Measured max response, listed per entry for reference.
- System: KB-3-1
- Experiment Description: Cytotoxic Profiling of Annotated Libraries Using Quantitative High-Throughput Screening (AID 1296008); note: % is set by controls: 0 for no effect and ±100 for the full control effect; nearly all actives have a fitted effect of over 60% in size
- Experimental Conditions: Five cell lines viability, CellTiter-Glo ATP luminescence, 48-72 h; stronger effect = lower value
Inconclusive results are not listed.
Numeric answer only, unit % assumed.

# returns recorded max response (system: KB-3-1) for CCCCCCOC(=O)N=C(N)c1ccc(NCc2nc3cc(C(=O)N(CCC(=O)OCC)c4ccccn4)ccc3n2C)cc1
5.67

More entries:
# returns recorded max response (system: KB-3-1) for CN(C)c1nc(Cc2ccc(NC(=O)c3ccc(C(F)(F)F)cc3)cc2)nc(N(C)C)c1CC(=O)O
4.62

# returns recorded max response (system: KB-3-1) for CCC[C@H](N[C@@H](C)C(=O)N1[C@@H]2CCCC[C@H]2C[C@H]1C(=O)O)C(=O)OCC
-1.21

# returns recorded max response (system: KB-3-1) for CN[C@@H]1[C@@H](O)[C@@H](O[C@@H]2[C@@H](O)[C@H](O[C@H]3O[C@H](CN)[C@@H](O)[C@H](O)[C@@H]3O)[C@@H](N)C[C@@H]2NC(=O)[C@@H](O)CN)OC[C@]1(C)O
1.73

# returns recorded max response (system: KB-3-1) for Oc1ccc(C=Cc2cc(O)cc(O)c2)cc1
-2.23

# returns recorded max response (system: KB-3-1) for CC(=O)N1CCN(c2ccc(OCc3nn(C)c(C)c3-c3cccc4c(CCCOc5cc(C)c(Cl)c(C)c5)c(C(=O)O)n(Cc5cccnc5)c34)cc2)CC1
1.85

----------
- Experiment Description: Quantitative High-Throughput drug screen in 47 multiple myeloma cell lines against the NCATS MIPE library collection: KMM1_JCRB cell viability assay (AID 1918960); note: nearly all actives have a fitted effect of over 30% in size
- Experimental Conditions: KMM1 myeloma viability, CellTiter-Glo ATP luminescence, 48 h; series mostly up to 45.8 µM
Inconclusive results are not listed. Active and inactive are the calls of the source. The call rests on the fitted dose curve; in most records, active means well fitted cell-killing curve with a large enough effect; inconclusive means small, poorly fitted or top-dose-only effect, or effect the other way; inactive means no such curve, though single readings can be large or run the other way.
Parameter call: string, one of True = active, False = inactive

Solved entries (count: 5):
For this molecule, state the assay outcome: O=C1CN2Cc3c(ccc(Cl)c3Cl)N=C2N1
False

For this molecule, state the assay outcome: c1ccc(-c2oc3ncnc(NC[C@@H]4CCCO4)c3c2-c2ccccc2)cc1
True

For this molecule, state the assay outcome: CC(C)CN(C[C@@H](O)[C@H](Cc1ccccc1)NC(=O)O[C@H]1CO[C@H]2OCC[C@H]21)S(=O)(=O)c1ccc(N)cc1
False

For this molecule, state the assay outcome: CC(C)Oc1cc(Nc2nc(N[C@@H](C)c3ccc(F)cn3)ncc2Cl)[nH]n1
True

For this molecule, state the assay outcome: CCCCC[C@H](O)C=C[C@H]1[C@H](O)CC(=O)[C@H]1CC=CCCCC(=O)O
False

More entries:
For this molecule, state the assay outcome: Cc1ccccc1-n1c(Cn2nc(-c3cccc(O)c3)c3c(N)ncnc32)nc2cccc(C)c2c1=O
True

For this molecule, state the assay outcome: COC(=O)N1CCN(Cc2cccc(NC(=O)Nc3ccc(C)nc3)c2F)CC1
False

For this molecule, state the assay outcome: N#Cc1ccc(Oc2ccc3c(c2)COB3O)cc1
True

For this molecule, state the assay outcome: O=C(Nc1cccc(Cl)c1)Nc1ncc(CCNc2ncnc3ccsc23)s1
True

For this molecule, state the assay outcome: COc1ccc(-c2oc3c(CC=C(C)C)c(O)cc(O)c3c(=O)c2O)cc1
False
